# SYSTEM: Cdk2(R122C) (C177A) (Homo sapiens, UniProt P24941, C177A/R122C)
# Construct: poly-histidine; made in house; host or cells: E. coli
# EXPERIMENT NOTES: Kinetic thiol consumption assay with Cdk2 mutant R122C
# Type: binding
# Set-up: key: rate constant with Cdk2 ÷ rate constant with model thiol (fold)
# CONDITIONS USED: Cdk2 R122C, additional mutation C177A
Rate enhancement, Cdk2 R122C strictly less than 0.3 = label 1. Otherwise label 0.

Known results for compounds:
C=CC(=O)NC1C[C@@H](C(=C)C)CC=C1C (some centres unmarked)
label 0
C=CC(=O)N1CCCCCC1c1ccc(N(C)C)cc1 (centres unmarked)
label 0

For this compound, is Rate enhancement, Cdk2 R122C lower than 0.3? `C=CC(=O)NC1(C2CC2)CC1`
label 1

For this compound, is Rate enhancement, Cdk2 R122C lower than 0.3? `C=CC(=O)Nc1ccc(C(=O)NC2CCCC2)cc1`
label 1

For this compound, is Rate enhancement, Cdk2 R122C lower than 0.3? `C=CC(=O)Nc1nc2c(s1)CCCCCC2`
label 0

###

# SYSTEM: Cdk2(C177A, F80C) (Homo sapiens, UniProt P24941, C177A/F80C)
# Construct: poly-histidine; made in house; host or cells: E. coli
# EXPERIMENT NOTES: Kinetic thiol consumption assay with Cdk2 mutant F80C, incl. kobs versus concentration (Kd, k2)
# Type: binding
# CONDITIONS USED: Protein: Cdk2; cysteine position F80C; additional mutation C177A; in h^-1
Rate constant with Cdk2 F80C strictly less than 0.002 = t. Otherwise f.

C=CC(=O)NCc1ccc(F)cc1 [BN-62]
t

For this compound, is Rate constant with Cdk2 F80C lower than 0.002? C=CC(=O)N1CCC2(CC1)NC(=O)N(C)C2=O [CA-046]
t

For this compound, is Rate constant with Cdk2 F80C lower than 0.002? C=CC(=O)Nc1ccccc1C#N [EL-1178]
f

For this compound, is Rate constant with Cdk2 F80C lower than 0.002? FC(F)(F)c1cc(Cl)ncc1Br [EN008]
f

For this compound, is Rate constant with Cdk2 F80C lower than 0.002? C=CC(=O)N(Cc1ccco1)Cc1cc2cc(C)ccc2o1 [CA-178]
f

###

# SYSTEM: Cdk2(H71C) (C177A) (Homo sapiens, UniProt P24941, C177A/H71C)
# Construct: poly-histidine; made in house; host or cells: E. coli
# EXPERIMENT NOTES: Kinetic thiol consumption assay with Cdk2 mutant H71C
# Format: binding
# CONDITIONS USED: Protein: Cdk2; cysteine position H71C; additional mutation C177A; in h^-1
Kindly supply the reported Rate constant with Cdk2 H71C values for the records listed here.
Answers are plain numbers.

C=CC(=O)N(Cc1ccco1)C12CC3CC(CC(C3)C1)C2
0.008761

// for each compound below, give its Rate constant with Cdk2 H71C
1. C=CC(=O)NCc1ccc(C(=O)OC)cc1
2. C=CC(=O)N1CCc2cc(-c3cccc(F)c3)ccc21
3. C=CC(=O)N1CCCC2(CCCc3ccccc32)C1 (stereo not drawn)
4. C=CC(=O)N1CCN(c2ccccc2[N+](=O)[O-])CC1
5. C=CC(=O)Nc1sc2c(c1C(=O)NC1CC1)CCC2

1. 0.001273
2. 0.007409
3. 0.0138
4. 0.02042
5. 0.2926
